Assay: PAMPA (parallel artificial membrane permeability assay)
Format: in vitro ADME
Conditions: PAMPA, pH 6.5
Starred links: 1 amine or outer side, 2 acyl side, 3 side chain; linkers in the order of their positions; H or OH if unused. Positions of bridges follow the written chain, without caps; N, C: chain ends. Non-standard residues stand in square brackets, D forms with d. Residues, ends and D or L forms follow the SMILES beside them. ξ: configuration not given here. *: point of attachment. NMePhe(3-Cl) = CN[C@@H](Cc1cccc(Cl)c1)C(=O)O; NMeF = CN[C@@H](Cc1ccccc1)C(=O)O; NMeGABA = CN(CCCC(=O)[*:2])[*:1]; NMeI = CC[C@H](C)[C@H](NC)C(=O)O; NMeβAla = CN(CCC(=O)[*:2])[*:1]; NMeξIle = CC[C@H](C)C(NC)C(=O)O; NMeL = CN[C@@H](CC(C)C)C(=O)O; ξNMeF = CNC(Cc1ccccc1)C(=O)O; NMeV = CN[C@H](C(=O)O)C(C)C; NMeA = CN[C@@H](C)C(=O)O; Piperidide = C1CCN(*)CC1; dNMeA = CN[C@H](C)C(=O)O; β3hA = C[C@H](N)CC(=O)O; Sar = CNCC(=O)O; tBu = CC(C)(C)*
// label = condition met if Papp at 18 hours, 50 µM is not less than 20 ×10⁻⁶ cm/s, otherwise condition not met

Record excerpt, results attached:
# compound, label-class
records = [
    ("CC[C@H](C)[C@H]1C(=O)N[C@@H](COC(C)(C)C)C(=O)N(C)[C@@H](Cc2ccccc2)C(=O)N(C)[C@@H](C(C)C)C(=O)N[C@H](C(=O)N2CCCCC2)CC(=O)N(C)[C@@H](C)C(=O)N(C)[C@@H](Cc2ccccc2)C(=O)N[C@@H](CC(C)C)C(=O)N(C)[C@@H](CC(C)C)C(=O)N[C@@H]([C@@H](C)O)C(=O)N(C)CC(=O)N1C [DP-47] ([NMeA][NMeF]L[NMeL]T[Sar][NMeI]S(tBu)[NMeF][NMeV]D-Piperidide; lactam N-11)", "condition met"),
    ("CC[C@H](C)[C@H]1C(=O)N[C@@H]([C@@H](C)O)C(=O)N(C)[C@@H](C)C(=O)N(C)[C@@H](CC(C)C)C(=O)N[C@H](C(=O)N2CCCCC2)CC(=O)N(C)CCC(=O)N(C)[C@@H](CC(C)C)C(=O)N[C@@H](CC(C)C)C(=O)N(C)[C@@H](Cc2ccccc2)C(=O)N[C@@H](COC(C)(C)C)C(=O)N(C)C(Cc2ccccc2)C(=O)N1C (stereo partly drawn) [DP-103] ([NMeβAla][NMeL]L[NMeF]S(tBu)[ξNMeF][NMeI]T[NMeA][NMeL]D-Piperidide; lactam N-11)", "condition not met"),
    ("CC[C@H](C)[C@@H]1NC(=O)[C@H](CC(C)C)N(C)C(=O)[C@H](CC(C)C)N(C)C(=O)[C@H](C)NC(=O)CCCN(C)C(=O)C[C@@H](C(=O)N2CCCCC2)NC(=O)[C@H](CC(C)C)N(C)C(=O)[C@H](Cc2ccccc2)N(C)C(=O)CN(C)C(=O)[C@H]([C@@H](C)O)NC(=O)[C@H](Cc2ccccc2)N(C)C1=O [DP-275] ([NMeGABA]A[NMeL][NMeL]I[NMeF]T[Sar][NMeF][NMeL]D-Piperidide; lactam N-11)", "condition met"),
]

Given CC[C@H](C)[C@H]1C(=O)NCC(=O)N(C)[C@@H](Cc2cccc(Cl)c2)C(=O)N[C@@H]([C@@H](C)O)C(=O)N(C)[C@@H](CC(C)C)C(=O)N[C@@H](CC(C)C)C(=O)N[C@@H](C)CC(=O)N(C)[C@H](C)C(=O)N(C)[C@@H](CC(C)C)C(=O)N[C@@H](Cc2ccccc2)C(=O)N(C)[C@@H](CC(C)C)C(=O)N[C@@H](C(C)C)C(=O)N1C [DP-762] (cyclo(F[NMeL]V[NMeI]G[NMePhe(3-Cl)]T[NMeL]L[β3hA][dNMeA][NMeL])) , state whether its Papp at 18 hours, 50 µM is at least 20 ×10⁻⁶ cm/s.
condition not met

Given CC[C@H](C)C1C(=O)N[C@H](C(=O)N2CCCCC2)CC(=O)N(C)CC(=O)N(C)CC(=O)N[C@@H]([C@@H](C)O)C(=O)N(C)[C@@H](Cc2ccccc2)C(=O)N(C)[C@@H](CC(C)C)C(=O)N[C@@H](COC(C)(C)C)C(=O)N(C)[C@@H](CC(C)C)C(=O)N1C (stereo partly drawn) [DP-60] ([Sar][Sar]T[NMeF][NMeL]S(tBu)[NMeL][NMeξIle]D-Piperidide; lactam N-9) , state whether its Papp at 18 hours, 50 µM is at least 20 ×10⁻⁶ cm/s.
condition met
